Compiled record: pKi values for Melanocortin receptor 5 (Homo sapiens) across several sources.
One number for each entry, as −log10 of the molar value.

The cases that follow already have their pKi on record.
NCCC(=O)N[C@H](Cc1ccc(Cl)cc1Cl)C(=O)N1CCN(C2(CNCCc3ccccc3)CCCCC2)CC1 ... 5.92
COCC(=O)N[C@H]1Cc2ccc(OC)c(c2)Cc2ccc(cc2)Oc2cccc(c2)CN(CCCN2CCN(CCCN)CC2)C1=O ... 6.41
O=C1CN(C(=NC2CCCCC2)Nc2ccc(C(=O)NCCc3ccc(Cl)cc3Cl)cc2)CCN1 ... 6.25
O=C(N[C@H](Cc1ccc(Cl)cc1)C(=O)N1CCN(C2CCCCC2Cn2cncn2)CC1)C1Cc2ccccc2CN1 (some centres undefined) ... 4.80
CC(=O)N[C@@H](Cc1ccc(O)cc1)C(=O)N[C@@H](CCCNC(=N)N)C(=O)N[C@H]1CSSC[C@@H](C(N)=O)NC(=O)[C@H](Cc2c[nH]c3ccccc23)NC(=O)[C@H](CCCNC(=N)N)NC(=O)[C@@H](Cc2ccc(F)cc2)NC(=O)[C@H](Cc2c[nH]cn2)NC(=O)[C@H](CCC(=O)O)NC1=O ... 6.62
CC(C)[C@H](NC(=O)[C@@H](N)Cc1ccc(O)cc1)C(=O)N[C@@H]1C(=O)NCC(=O)N[C@@H](Cc2cnc[nH]2)C(=O)N[C@@H](Cc2ccccc2)C(=O)N[C@@H](CCCNC(=N)N)C(=O)N[C@@H](Cc2c[nH]c3ccccc23)C(=O)N[C@H](C(=O)N[C@@H](CCCNC(=N)N)C(=O)N[C@@H](Cc2ccccc2)C(=O)NCC(N)=O)CSSC1(C)C ... 5.77
CC(C)CC(O)c1ccccc1N1CCN(C(=O)[C@@H](Cc2ccc(Cl)cc2Cl)NC(=O)CN(C)C)CC1 (some centres undefined) ... 5.89
NCc1ccccc1N1CCN(C(=O)[C@@H](Cc2ccc(Cl)cc2)NC(=O)[C@H]2Cc3ccccc3CN2)CC1 ... 5.64

Field: pKi. Fill in for each record below.
1. CNC(=O)c1ccc(Nc2nc3ccc(C(=O)N(CCC(C)C)CCC(C)C)cc3n2CCCN2CCCCC2)cc1
2. O=C(NCCc1ccc(Cl)cc1Cl)c1ccc(NC(=NC2CCCCC2)N2CCC(N3CCCC3)CC2)cc1
3. CN1CCN(/C(=N/c2ccc(C(=O)NCCc3ccc(Cl)cc3Cl)cc2)NC2CCCCC2)CC1
4. NCCCC(=O)N[C@H](Cc1ccc(Cl)cc1)C(=O)N1CCN(c2ccccc2CNCCc2cccs2)CC1
5. O=C(N[C@H](Cc1ccc(Cl)cc1)C(=O)N1CCN(c2cccc3c2CCCC3)CC1)[C@H]1Cc2ccccc2CN1

1. 6.06
2. 7.11
3. 7.30
4. 6.00
5. 6.59

Data point: CC(C)CC(O)c1ccccc1N1CCN(C(=O)[C@@H](Cc2ccc(Cl)cc2Cl)NC(=O)CCN)CC1 (some centres undefined) ; pKi = 6.01

====

Compiled literature pKi, tested on Melanocortin receptor 5 (Homo sapiens, UniProt P33032).
Sequence (P33032 whole entry): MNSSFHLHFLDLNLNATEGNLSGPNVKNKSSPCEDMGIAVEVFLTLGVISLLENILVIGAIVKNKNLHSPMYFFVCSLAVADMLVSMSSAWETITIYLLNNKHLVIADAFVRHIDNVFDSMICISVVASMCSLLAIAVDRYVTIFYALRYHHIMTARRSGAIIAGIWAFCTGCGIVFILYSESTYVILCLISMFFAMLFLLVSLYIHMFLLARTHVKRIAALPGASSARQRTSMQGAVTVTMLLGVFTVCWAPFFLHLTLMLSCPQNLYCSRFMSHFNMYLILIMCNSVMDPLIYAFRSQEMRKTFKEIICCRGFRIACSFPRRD
Give bare numbers, as −log10 of the molar value.

Example cases with answers are listed next.
O=C(N[C@H](Cc1ccc(Cl)cc1)C(=O)N1CCN(c2ccccc2CNCCc2ccccc2F)CC1)[C@H]1Cc2ccccc2CN1 ... 6.59
CCC(C)[C@H](NC(=O)CCN)c1cc(C(F)(F)F)ccc1N1CCN(C(=O)CCc2ccc(Cl)cc2Cl)CC1 (some centres undefined) ... 6.77
O=C(N[C@H](Cc1ccc(Cl)cc1)C(=O)N1CCN(c2cccc3c2CN(S(=O)(=O)c2ccccc2)CC3)CC1)[C@H]1Cc2ccccc2CN1 ... 6.15
C[C@@H]1CN(C(=NC2CCCCC2)Nc2ccc(C(=O)NCCc3ccc(Cl)cc3Cl)cc2)CCN1 ... 8.68
CCC(O)(CC)c1ccccc1N1CCN(C(=O)[C@@H](Cc2ccc(Cl)cc2Cl)NC(=O)CN(C)C)CC1 ... 6.02
NCCCNC(=O)[C@H](CNCc1c[nH]c2ccccc12)NCc1ccc2ccccc2c1 ... 4.40
O=C(NCCc1ccc(Cl)cc1Cl)c1ccc(NC(=NC2CCCCC2)N2CCN(c3ncccn3)CC2)cc1 ... 6.52

Record O=C(NCCc1ccc(Cl)cc1Cl)c1ccc(NC(=NC2CCCCC2)N2CCN(c3ccccc3)CC2)cc1 , field pKi: 6.54
